Every entry's value here was drawn from patent US20260242392A1.

- ASSAY_EXPLANATION: Pharmacokinetic (PK) study in ICR mice, IV and PO
- DETAILS: ICR, mouse, plasma, iv, 2 mg/kg
RESULT_TYPE: clearance (L/h/kg)

MOLECULE | UNITS | clearance
COc1cc2sc(C(=O)C[C@H](C)C(=O)O)cc2c2cc(F)oc12 [Example 62] | L/h/kg | 0.454

(a) COc1cc2sc(C(=O)CCC(=O)O)cc2c2ncoc12 [Compound 1]
(b) COc1cc2sc(C(=O)CCC(=O)O)cc2c2nc(C)oc12 [Example 6]
Param metric = clearance; output whichever of a , b has the minimum value. Respond with the label that goes with your answer.
b
(b: 0.471 L/h/kg, a: 3.02 L/h/kg)
